Parameter IC50: see the listing below.
# System name: Cathepsin D (Bos taurus)
# Sequence (P80209 whole entry): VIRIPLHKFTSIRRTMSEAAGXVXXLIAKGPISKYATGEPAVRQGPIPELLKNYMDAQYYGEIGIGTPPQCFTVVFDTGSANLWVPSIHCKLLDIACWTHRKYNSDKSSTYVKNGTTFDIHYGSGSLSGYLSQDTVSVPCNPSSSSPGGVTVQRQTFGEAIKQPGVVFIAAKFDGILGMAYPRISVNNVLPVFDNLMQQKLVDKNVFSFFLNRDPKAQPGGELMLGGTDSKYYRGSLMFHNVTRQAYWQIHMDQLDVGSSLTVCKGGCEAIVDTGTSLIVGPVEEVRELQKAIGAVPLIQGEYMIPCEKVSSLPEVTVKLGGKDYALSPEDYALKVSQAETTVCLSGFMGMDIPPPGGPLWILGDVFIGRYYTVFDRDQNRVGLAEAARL
# Test description: Inhibition of Bovine Cathepsin D.
Quantity name: IC50 (nM)

molecule="COC(=O)CC(NC(=O)[C@H](Cc1ccccc1)NS(=O)(=O)N1CCOCC1)C(=O)N[C@@H](CC1CCCCC1)[C@@H](O)[C@H](O)CC(C)C (stereo partly drawn)" quantity_name=IC50 value_units=nM result_modifier== data_value=27
molecule=COc1ccc(C[C@H](NC(=O)CC(C)(C)N)C(=O)N[C@@H](Cc2c[nH]cn2)C(=O)N[C@@H](CC2CCCCC2)[C@@H](O)[C@@H](O)CC(C)C)cc1 quantity_name=IC50 value_units=nM result_modifier=> data_value=1000
molecule="COC(=O)C(NC(=O)[C@H](Cc1ccccc1)NS(=O)(=O)N1CCOCC1)C(=O)N[C@@H](CC1CCCCC1)[C@@H](O)[C@H](O)CC(C)C (stereo in doubt; 4A)" quantity_name=IC50 value_units=nM result_modifier== data_value=46

---

# System name: Chymotrypsinogen A (Bos taurus) (UniProt P00766)
# Test description: % degradation to Chymotrypsinogen proteolysis at 30 mins.
Quantity name: Degradation (%)

molecule="CC(C)C[C@@H](O)[C@H](O)[C@H](CC1CCCCC1)NC(=O)C(NC(=O)[C@H](Cc1ccccc1)NS(=O)(=O)N1CCOCC1)C(=O)OC(C)C (some centres undefined)" data_value=70
molecule="COC(=O)C(NC(=O)[C@H](Cc1ccccc1)NS(=O)(=O)N1CCOCC1)C(=O)N[C@@H](CC1CCCCC1)[C@@H](O)[C@H](O)CC(C)C (stereo in doubt; 4)" data_value=100
molecule="CCCCCCOC(=O)C(NC(=O)[C@H](Cc1ccccc1)NS(=O)(=O)N1CCOCC1)C(=O)N[C@@H](CC1CCCCC1)[C@@H](O)[C@H](O)CC(C)C (some centres undefined)" data_value=15
molecule="C=CCOC(=O)C(NC(=O)[C@H](Cc1ccccc1)NS(=O)(=O)N1CCOCC1)C(=O)N[C@@H](CC1CCCCC1)[C@@H](O)[C@H](O)CC(C)C (some centres undefined)" data_value=65

---

# System name: Cathepsin D (Bos taurus)
# Test description: Inhibitory concentration on Bovine Cathepsin D
pIC50: −log10 of the molar value.
Quantity name: pIC50

molecule="COC(=O)C(NC(=O)[C@H](Cc1ccccc1)NS(=O)(=O)N1CCOCC1)C(=O)N[C@@H](CC(C)C)[C@@H](O)CC(=O)NCCN1CCOCC1 (stereo not given in full)" system_name="Cathepsin D (Bos taurus)" result_modifier=< data_value=6.00
molecule=CCCCNC(=O)[C@@H](C[C@H](O)[C@H](CC1CCCCC1)NC(=O)[C@H](Cc1c[nH]cn1)NC(=O)[C@H](Cc1ccccc1)CS(=O)(=O)C(C)(C)C)C(C)C system_name="Cathepsin D (Bos taurus)" result_modifier== data_value=5.89
molecule="COC(=O)C(NC(=O)[C@H](Cc1ccccc1)NS(=O)(=O)N1CCOCC1)C(=O)N[C@@H](CC1CCCCC1)C(=O)C(F)(F)C(=O)NCCN1CCOCC1 (stereo not given in full)" system_name="Cathepsin D (Bos taurus)" result_modifier== data_value=6.29
molecule=CSC[C@H](NC(=O)[C@H](Cc1ccccc1)NC(=O)N1CCOCC1)C(=O)N[C@@H](CC1CCCCC1)[C@@H](O)C(=O)OC(C)C system_name="Cathepsin D (Bos taurus)" result_modifier== data_value=7.62
molecule="COC(=O)C(NC(=O)[C@H](Cc1ccccc1)NS(=O)(=O)N1CCOCC1)C(=O)N[C@@H](CC1CCCCC1)[C@@H](O)CC(=O)NCCN1CCOCC1 (stereo not given in full)" system_name="Cathepsin D (Bos taurus)" result_modifier=< data_value=6.00
